# Test system: compound 48/80-induced lethality
# assay: Protection of rats from compound 48/80-induced lethality
# Assay type: in vivo, rat (male, inbred Wistar strain)
# test.conditions: Rattus norvegicus, 4 h, read-out: Compound 48/80 lethality test in rats-ED50
# Method: Protection of rats from compound 48/80-induced lethality The protection from compound 48/80-induced lethal circulatory collapse appears to be a simple way of evaluating quantitatively the antihistaminic activity of test compounds. Male rats of an inbred Wistar strain, weighing 240-260 g were used in the experiment. After overnight starvation the rats were transferred to conditioned laboratories (temp.=21±1° C., relative humidity=65±5%). […]
Task for the reader: assign each of the following compounds its reported ED50.

{"compound": "Cc1nc2n(c(=O)c1CCN1CCC(Nc3nc4cccnc4n3Cc3ccco3)CC1)C(C)CCC2 (centres unmarked)", "assayed.target": "compound 48/80-induced lethality", "quantity.measured": "ED50", "test.result": "0.31 mg/kg"}
{"compound": "Fc1ccc(Cn2c(NC3CCN(CCc4cn5cccnc5n4)CC3)nc3ccccc32)cc1", "assayed.target": "compound 48/80-induced lethality", "quantity.measured": "ED50", "test.result": "0.08 mg/kg"}
{"compound": "Cn1c(=O)c2c(ncn2CCN2CCC(Nc3nc4cccnc4n3Cc3ccco3)CC2)n(C)c1=O", "assayed.target": "compound 48/80-induced lethality", "quantity.measured": "ED50", "test.result": "0.16 mg/kg"}
{"compound": "O=c1[nH]c2c(Cl)ncnc2n1CCN1CCC(Nc2nc3ccccc3n2Cc2ccc(F)cc2)CC1", "assayed.target": "compound 48/80-induced lethality", "quantity.measured": "ED50", "test.result": "0.08 mg/kg"}
{"compound": "Fc1ccc(Cn2c(NC3CCN(Cc4cn5ccncc5n4)CC3)nc3ccccc32)cc1", "assayed.target": "compound 48/80-induced lethality", "quantity.measured": "ED50", "test.result": "0.16 mg/kg"}

Quick one: give me ED50 for each item below, same order please.
1. Fc1ccc(Cn2c(NC3CCN(CCNc4nc5cnccc5s4)CC3)nc3ccccc32)cc1
2. Fc1ccc(Cn2c(NC3CCN(CCNc4nc5cnccc5[nH]4)CC3)nc3cccnc32)cc1
3. CCOC(=O)N1CCc2nc(NCCN3CCC(Nc4nc5ccccc5n4Cc4ccc(F)cc4)CC3)sc2C1 [Compound 147, monohydrate]

**A:**
0.16 mg/kg
0.02 mg/kg
0.31 mg/kg

====

# Test system: compound 48/80-induced lethality
# assay: Protection of rats from compound 48/80-induced lethality
# Type: in vivo, rat (male, inbred Wistar strain)
# test.conditions: Rattus norvegicus, 4 h, read-out: Compound 48/80 lethality test in rats-ED50
quantity.measured: ED50 (mg/kg)
Numbers only, in mg/kg.

Guide cases for ED50, answers given:
{"compound": "Cc1nc2n(c(=O)c1CCN1CCC(Nc3nc4cccnc4n3Cc3ccco3)CC1)CCCS2 [Compound 14]", "quantity.measured": "ED50", "test.result": 0.02}
{"compound": "Cc1nc2n(c(=O)c1CCN1CCC(Nc3nc4ccccc4n3Cc3ccccn3)CC1)CCCC2 [Compound 57]", "quantity.measured": "ED50", "test.result": 0.16}
{"compound": "c1ccc(Cn2c(NC3CCN(CCNc4nc5cnccc5[nH]4)CC3)nc3cccnc32)nc1 [Compound 113]", "quantity.measured": "ED50", "test.result": 0.04}

**Q:** What ED50 appears in the records for this compound with compound 48/80-induced lethality? Fc1ccc(Cn2c(NC3CCN(CCn4c(=S)[nH]c5ccccc54)CC3)nc3ccccc32)cc1 [Compound 142]
**A:** 0.16
